Target: HLA-A*0201 (human)
Assay: competition binding to purified HLA, 125I-labelled standard peptide, gel filtration; ratio = IC50 standard / IC50 test peptide
recorded_endpoint: binding affinity ratio

binder | endpoint_result
DTCGGDSGGPL (modifications not checked) [… (Kallikrein, position 207, 11 amino acids)] | 0.0001
DVCAQVHPQKV (modifications not checked) [… (PSA, position 178, 11 amino acids)] | 0.0001
EIVRSFGTL (modifications not checked) [… (PSM, position 397, 9 amino acids)] | 0.0002
DLHVISNDVCA (modifications not checked) [… (PSA, position 171, 11 amino acids)] | 0.0001
DAVKVMDLPT (modifications not checked) [… (PSA, position 130, 10 amino acids)] | 0.0001
DLPTQEPA (modifications not checked) [DLPTQEPA (PSA, position 136, 8 amino acids)] | 0.0001
DLHVISNDV (modifications not checked) [… (PSA, position 171, 9 amino acids)] | 0.0003
DMKINCSGKI (modifications not checked) [… (PSM, position 191, 10 amino acids)] | 0.0001
